assay_details: Clearance in human hepatocytes assessed per 10^6 cells
Assay type: ADME, cell-based, Hepatocyte
run_parameters: read-out: CLH
The reader will find reported hepatocyte CLint values listed item by item below.
Quick reminder: number only, in µL/min/1e6 cells, skip the unit.

Cc1ccc(C(=O)N2CC[C@H](O)C2)c(OC[C@@H](O)CN2CCC3(CC2)Cc2cc(Cl)ccc2O3)c1; 11

Please find the next compound below.
Query: For the compound COc1ccc(C(=O)NC2CC2)c(OC[C@@H](O)CN2CCC3(CC2)Cc2cc(Cl)ccc2O3)c1 , what hepatocyte CLint is on record?
Reply: 15

----------
The reader will find reported hepatocyte CLint values listed item by item below.
assay_details: Clearance in human hepatocytes assessed per 10^6 cells
Assay type: ADME, cell-based, Hepatocyte
run_parameters: read-out: CLH
Quick reminder: number only, in µL/min/1e6 cells, skip the unit.

Some compounds with recorded hepatocyte CLint:
O=C(c1ccc(O)cc1OC[C@@H](O)CN1CCC2(CC1)Cc1cc(Cl)ccc1O2)N1CCCC1; 9.6
O=C(c1ccc(O)cc1OC[C@@H](O)CN1CCC2(CC1)Cc1cc(Cl)ccc1O2)N1CCCCC1; 14

Please find the next compound below.
Query: For the compound O=C(NC1CC1)c1ccccc1OC[C@@H](O)CN1CCC2(CC1)Cc1cc(Cl)ccc1O2 , what hepatocyte CLint is on record?
Reply: 5.2

----------
assay_details: Clearance in rat hepatocytes assessed per 10^6 cells
Type: ADME, cell-based, Hepatocyte
run_parameters: read-out: CLH
quantity_kind: hepatocyte CLint (µL/min/1e6 cells)
Quick reminder: number only, in µL/min/1e6 cells, skip the unit.

Some molecules with recorded hepatocyte CLint:
O=C(c1ccc(O)cc1OC[C@@H](O)CN1CCC2(CC1)Cc1cc(Cl)ccc1O2)N1CC[C@H](O)C1; 6.7
O=C(NC1CC1)c1ccc(F)cc1OC[C@@H](O)CN1CCC2(CC1)Cc1cc(Cl)ccc1O2; 20

Query: For the molecule O=C(c1ccc(O)cc1OC[C@@H](O)CN1CCC2(CC1)Cc1cc(Cl)ccc1O2)N1CCCC1 , what hepatocyte CLint is on record?
Reply: 23

Query: For the molecule O=C(NC1CC1)c1ccc(O)cc1OC[C@@H](O)CN1CCC2(CC1)Cc1cc(Cl)ccc1O2 , what hepatocyte CLint is on record?
Reply: 28

Query: For the molecule O=C(c1cc(Cl)c(O)cc1OC[C@@H](O)CN1CCC2(CC1)Cc1cc(Cl)ccc1O2)N1CC[C@H](O)C1 , what hepatocyte CLint is on record?
Reply: 8.1

Query: For the molecule CNC(=O)c1ccc(O)cc1OC[C@@H](O)CN1CCC2(CC1)Cc1cc(Cl)ccc1O2 , what hepatocyte CLint is on record?
Reply: 33

Query: For the molecule CNC(=O)c1ccc(O)cc1OC[C@@H](O)CN1CCC2(CC1)Cc1cc(F)ccc1O2 , what hepatocyte CLint is on record?
Reply: 22

Query: For the molecule O=C(NC1CC1)c1ccccc1OC[C@@H](O)CN1CCC2(CC1)Cc1cc(Cl)ccc1O2 , what hepatocyte CLint is on record?
Reply: 45

----------
assay_details: Clearance in human hepatocytes assessed per 10^6 cells
Format: ADME, cell-based, Hepatocyte
run_parameters: read-out: CLH
Returns: string. Value is yes (1) if measured hepatocyte CLint is below 10 µL/min/1e6 cells, and no (0) if it is greater than or equal to it.

For orientation, consider the following solved cases.
O=C(c1ccc(O)cc1OC[C@@H](O)CN1CCC2(CC1)Cc1cc(Cl)ccc1O2)N1CC[C@H](O)C1; yes (1)
O=C(NC1CC1)c1ccc(F)cc1OC[C@@H](O)CN1CCC2(CC1)Cc1cc(Cl)ccc1O2; yes (1)

Query: Take the molecule CNC(=O)c1ccc(O)cc1OC[C@@H](O)CN1CCC2(CC1)Cc1cc(F)ccc1O2 and say whether its hepatocyte CLint is less than 10 µL/min/1e6 cells.
Reply: no (0)

Query: Take the molecule O=C(NC1CC1)c1ccc(O)cc1OC[C@@H](O)CN1CCC2(CC1)Cc1cc(Cl)ccc1O2 and say whether its hepatocyte CLint is less than 10 µL/min/1e6 cells.
Reply: no (0)

Query: Take the molecule O=C(c1ccc(F)cc1OC[C@@H](O)CN1CCC2(CC1)Cc1cc(Cl)ccc1O2)N1CC[C@H](O)C1 and say whether its hepatocyte CLint is less than 10 µL/min/1e6 cells.
Reply: yes (1)
